molecular target: Ubiquitin carboxyl-terminal hydrolase 14 (Homo sapiens)
Sequence (P54578 whole entry): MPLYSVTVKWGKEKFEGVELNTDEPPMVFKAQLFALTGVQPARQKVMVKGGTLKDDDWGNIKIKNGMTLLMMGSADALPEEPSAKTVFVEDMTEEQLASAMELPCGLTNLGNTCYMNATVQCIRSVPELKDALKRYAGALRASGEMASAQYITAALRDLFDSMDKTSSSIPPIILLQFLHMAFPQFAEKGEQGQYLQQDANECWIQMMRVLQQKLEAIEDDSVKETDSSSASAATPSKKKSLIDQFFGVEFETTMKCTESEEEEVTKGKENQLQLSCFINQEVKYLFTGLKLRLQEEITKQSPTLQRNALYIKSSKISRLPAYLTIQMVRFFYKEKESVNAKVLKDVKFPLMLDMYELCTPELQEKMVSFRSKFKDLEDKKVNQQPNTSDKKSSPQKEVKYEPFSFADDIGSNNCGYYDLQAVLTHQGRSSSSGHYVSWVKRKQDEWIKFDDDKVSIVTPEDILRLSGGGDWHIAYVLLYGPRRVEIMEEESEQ

Structure smiles: Cc1c(C(=O)CN2C3CCC2CC3)cc(C#CCCC#N)n1-c1ccc(C#N)cc1
IC50: < 0.05 µM

Structure smiles: Cc1c(C(=O)CN2C3CC4CC2CC(C3)O4)cc(CCCCC#N)n1-c1ccc(C#N)cc1
IC50: < 0.05 µM
